# Test system: 786-0 renal
# Assay text: NCI tumour cell line growth inhibition, 48 h
Metric: TGI

Below, 5 compounds whose answers are already recorded.
[
  {
    "Compound": "O=C(c1ccccc1)C1C[C@H]2CO[C@H](c3ccccc3)N2C1=O (some centres not stated)",
    "TGI": "> 100 µM"
  },
  {
    "Compound": "COCN1C(=O)[C@@H]2CCCN2C(=O)c2ccc([N+](=O)[O-])cc21",
    "TGI": "> 100 µM"
  },
  {
    "Compound": "CCOC(=O)c1cc2cc(C)cc(C(=O)c3ccc([N+](=O)[O-])cc3)c2[nH]1",
    "TGI": "> 100 µM"
  },
  {
    "Compound": "Cn1c(=O)c2[nH]c(CCCCc3nc4c([nH]3)c(=O)n(C)c(=S)n4C)nc2n(C)c1=S",
    "TGI": "> 100 µM"
  },
  {
    "Compound": "CC[C@H]1C=CCC[C@@]2(C[C@@H]3CC[C@H]4[C@H](C(=O)OCCCCCCCCCCCCCCCC(=O)N(CCCN)C[C@@H](O)CCN)[C@]5(CCC[C@@H](C)O5)NC(=[N+]34)N2)O1",
    "TGI": "1.86 µM"
  }
]

Consider the compound CC1C(O)Oc2cc3c(cc2C1c1ccccc1O)OCO3 (configuration not stated) and give its measured TGI. > 100 µM

Would you mind telling me what TGI value was observed for `CCN1CCN(c2ccc(Nc3ncc4ccc5ncn(C(C)C)c5c4n3)nc2)CC1` ? 1.69 µM

May I ask what TGI has been recorded for `CCCCCCCCCCCCCCCCCC[N+](C)(C)Cc1ccc(C[N+](C)(C)CCCCCCCCCCCCCCCCCC)cc1` ? 39.1 µM

What value of TGI has been recorded for this entry: `COC(=O)/C=C1/OC(c2ccc(C)cc2)=C(Cl)C1=O` 27 µM

Using the record for `Cn1sc2ccccc2c1=S` , report its TGI. 13.6 µM
